// provenance: PubChem BioAssay

Experiment: reversal of MRP1-mediated doxorubicin resistance, pilot screen, H69AR cells, doxorubicin co-treatment (AID 601)
Conditions: H69AR cells + 2 uM doxorubicin, CellTiter-Glo, 72 h; measured here: viability with 2 uM doxorubicin; at 10 µM; stronger effect = lower value
Here, each record is paired with measured viability data.
# unit: % | format: bare number

Here is how some compounds turned out for viability.
CC(C)CN1C(=O)c2ccc(C(=O)Nc3nccs3)cc2C1=O | 82.6
CCC(=O)Nc1nn(C)c2nc3c(C)cccc3cc12 | 86.4

// viability lookup, key: Cc1ccc2nc3c(cc(C(=O)NCC4CCCO4)n3C)c(=O)n2c1 (configuration not stated)
87.1

Could you do the same for `COc1ccc(OC)c(Nc2ncnc3c2cnn3-c2ccccc2)c1` , please?
88.5

Now the same for CCOP(=O)(c1ccc(N(C)C)cc1)C(O)c1c(Cl)cccc1Cl (configuration not stated)
89.6

Try this compound too: `CC(=O)OC[C@H]1O[C@@H](n2ncc(=O)[nH]c2=O)[C@H](OC(C)=O)[C@@H]1OC(C)=O`
88.2

Same question, `CCCc1ccccc1OCCNC(C)=O` this time
90.4

---

Experiment: growth inhibitors of H69AR lung tumor, primary screen, human, duplicate replicates (AID 580);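 also: 100% = mean luminescence of untreated wells and 0% = no signal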
Conditions: H69AR lung tumor cells viability, ATP luminescence, 72 h; at 10 µM; stronger effect = lower value
Reported viability by item:
API: value field is a number in %; no unit string.

O=C1c2ccccc2-c2nc3ncnn3c(-c3ccccc3)c21 | 102
O=C(O)CCN(CCC(=O)O)c1nnc(SCc2ccccc2)s1 | 93.6
Cc1cccc2cc(CN(Cc3nnnn3C3CCCC3)C3CCCCC3)c(=O)[nH]c12 | 79.4

Now for another entry.
Bench note: what viability did COc1cc(C2N=C(c3ccccc3)NO2)cc(Br)c1O (centres undefined) show?
84.8

---

Catalogue of viability readings, one per entry.
Experiment: reversal of MRP1-mediated doxorubicin resistance, pilot screen, H69AR cells, doxorubicin co-treatment (AID 601)
Conditions: H69AR cells, CellTiter-Glo, 72 h; compound alone cytotoxicity; at 10 µM
# value in %; strip the unit string

Answered examples (3):
COc1cccc(-c2cc(C(=O)N3CCCc4ccccc43)no2)c1 | 92.4
CCOC(=O)C1CCN(CC(=O)c2c(C)[nH]c3ccccc23)CC1 | 92.6
CCOc1ccccc1N(C(=O)c1ccco1)C(C(=O)NC1CCCC1)c1cccnc1 (centres undefined) | 90.5

Okay, next one:
Give the measured viability of `COC(=O)c1c(NC(=O)CSc2nnnn2C)sc(C)c1C` .
92.5

---

Experiment: reversal of MRP1-mediated doxorubicin resistance, pilot screen, H69AR cells, doxorubicin co-treatment (AID 601)
Conditions: H69AR cells, CellTiter-Glo, 72 h; compound alone cytotoxicity; at 10 µM
measured-property: viability
Be sure to follow the number with its unit.

// worked examples, viability included
N#Cc1ccccc1Cn1c(=O)n(Cc2ccc(C(=O)NCc3ccco3)cc2)c(=O)c2sccc21 | 77.8%
CCCC1O[C@@H]2C[C@H]3[C@@H]4CCC5=CC(=O)C=C[C@]5(C)[C@H]4[C@@H](O)C[C@]3(C)[C@]2(C(=O)CO)O1 (stereo partly drawn) | 79.6%

# next compound below
Bench note: what viability did `CCCCn1c(NC(=O)CC)c(C#N)c2nc3ccccc3nc21` show?
81.9%
